# procedure-details: in vitro
# details: human, hela cells, % viability
measure-name: viability at 28.5 h, 10 µM (%)
Your answer is read as %, so omit the unit and give the number.

So for O=c1[nH]c2ncc(-c3ccco3)nc2n1CCCN1CCOCC1 , the logged viability at 28.5 h, 10 µM turned out to be 90.6

###

# procedure-details: in vitro
# details: human, hela cells, % viability
Please note: viability at 28.5 h, 10 µM exactly at 90% is no. Only values below 90% get yes.

Cc1cc(C(=O)N2CCN(C(=O)c3ccco3)CC2)n[nH]1 [CBK144447] = no

Hi there! Is viability at 28.5 h, 10 µM for COc1ccc(C(=O)NCC2(c3ccccc3)CCCC2)c(OC)c1 [CBK058164] below 90%, do you know?
no

Hi there! Is viability at 28.5 h, 10 µM for Nc1nc(=O)n([C@@H]2O[C@H](CO)[C@H](O)C2O)cc1CO (some centres unmarked) [CBK201160] below 90%, do you know?
no

Hi there! Is viability at 28.5 h, 10 µM for Cc1cccc(C(=O)Nc2ccc(C(=O)NNC(=O)C(C)(C)C)cc2)c1 [CBK269073] below 90%, do you know?
no

Hi there! Is viability at 28.5 h, 10 µM for CCCC(=O)N1CCC([C@@H]2C[C@H](C(F)F)n3nc(C)cc3N2)CC1 [CBK284724] below 90%, do you know?
no

Hi there! Is viability at 28.5 h, 10 µM for Cc1nn(-c2ccccc2)c(CN2C(=O)NC3(CCCC3)C2=O)c1C#N [CBK305572] below 90%, do you know?
yes

Hi there! Is viability at 28.5 h, 10 µM for Cc1ccc(C2c3c(oc4ccccc4c3=O)C(=O)N2CCCCCC(=O)O)cc1 (centres unmarked) [CBK287158] below 90%, do you know?
no

Hi there! Is viability at 28.5 h, 10 µM for COc1ccc(C(=O)N2CCC3(CCCN(C(=O)c4cccnc4)C3)C2)cc1OC (centres unmarked) [CBK131668] below 90%, do you know?
no

Hi there! Is viability at 28.5 h, 10 µM for OC1(CN2CCCC2)CCN(Cc2sccc2Cl)CC1 [CBK307491] below 90%, do you know?
no

Hi there! Is viability at 28.5 h, 10 µM for O=C(CSc1nnc2c(n1)[nH]c1ccccc12)Nc1ccccc1[N+](=O)[O-] [CBK263195] below 90%, do you know?
no

Hi there! Is viability at 28.5 h, 10 µM for O=C(CSc1nccc2ccccc12)NC1CCCOC1 (centres unmarked) [CBK282677] below 90%, do you know?
yes

###

# procedure-details: in vitro
# details: human, hela cells, % viability
measure-name: viability at 28.5 h, 10 µM (%)
Your answer is read as %, so omit the unit and give the number.

Cc1c(C(=O)N(C)Cc2cccn2C)[nH]c2ccccc12 = 94.6
COc1cc2c(cc1OC)CN(C(=O)c1cncnc1)CC2 = 105
CCCC/C=C/c1nccnc1NCC1CC1 = 100
Cc1nn(C)cc1C(C)NC(=O)C1CC2C=CC1C21CC1 (stereo not drawn) = 100
COCc1cccc(-c2nccnc2OC)c1 = 95.2

Then this compound:
So for COc1ccccc1-c1nccnc1OC , the logged viability at 28.5 h, 10 µM turned out to be 93.7

###

# procedure-details: in vitro
# details: human, hela cells, % viability
measure-name: viability at 28.5 h, 10 µM (%)
Your answer is read as %, so omit the unit and give the number.

Answered cases to consult:
O=S(=O)(Nc1cc(O[C@@H]2CCNC2)c2occc2c1)c1cc(F)c(Br)cc1F [CBK073943C] = 92
CCN(CC)CC(C)C(O)(c1ccc(Cl)cc1)c1ccc(Cl)cc1 (stereo not drawn) [CBK012146C] = 103

Then this molecule:
So for O=c1n(-c2ccc3c(c2)OCO3)ccn1S(=O)(=O)c1ccc2c(c1)OCCO2 , the logged viability at 28.5 h, 10 µM turned out to be 87.8

###

# procedure-details: in vitro
# details: human, hela cells, % viability
measure-name: viability at 28.5 h, 10 µM (%)
Your answer is read as %, so omit the unit and give the number.

Answered cases to consult:
C=CCn1c(Cc2csc(NC(=O)c3ccc([N+](=O)[O-])cc3Cl)n2)n[nH]c1=S = 76.1
O=C(CCN1C(=O)/C(=C/c2ccc(F)cc2)SC1=S)NNC(=O)c1cccnc1 = 104
Cc1ccn2c(CN3CCCC(Cn4ccnc4C)C3)c(C)nc2c1 (centres unmarked) = 86.6

So for O=C(CCCOc1ccc(Cl)cc1Cl)Nc1ccc(O)cc1C(=O)O , the logged viability at 28.5 h, 10 µM turned out to be 104

So for COc1cc(C=CC(=O)O)cc(S(=O)(=O)Nc2ccccc2C(=O)NCCc2ccccc2)c1OC , the logged viability at 28.5 h, 10 µM turned out to be 99.5

So for Cc1cccc(-c2n[nH]/c(=N/C(=O)c3ccccc3F)s2)c1 , the logged viability at 28.5 h, 10 µM turned out to be 84.5

So for CCOC(=O)c1c(-c2cccs2)csc1NC(=O)CN1CCCCCC1 [CBK265294G] , the logged viability at 28.5 h, 10 µM turned out to be 106

So for NC(=O)c1ccc(NC(=O)CSc2nnc(-c3ccncc3)n2-c2ccc(Br)cc2)cc1 , the logged viability at 28.5 h, 10 µM turned out to be 103

So for Cc1cccc(C(=O)Nc2ccccc2C(=O)Nc2cccc(C(=O)O)c2C)c1 , the logged viability at 28.5 h, 10 µM turned out to be 99.4

So for CC1CC(C)CN(C(=O)c2cc(S(=O)(=O)N3CCOCC3)ccc2Cl)C1 (centres unmarked) , the logged viability at 28.5 h, 10 µM turned out to be 87

So for CCCc1c(C(=O)N2CCN(c3ncccn3)CC2)cnn1-c1cc(Cl)cc(Cl)c1 , the logged viability at 28.5 h, 10 µM turned out to be 102

So for Cn1nccc1C(=O)C1CCN(C(=O)c2cc3c(s2)CCC3)CC1 , the logged viability at 28.5 h, 10 µM turned out to be 78.6

So for CC(=O)NC(Cc1c[nH]c2ccccc12)C(=O)O (centres unmarked) , the logged viability at 28.5 h, 10 µM turned out to be 95.9

###

Entries and their viability at 28.5 h, 10 µM values follow.
# procedure-details: in vitro
# details: human, hela cells, % viability
Your answer is read as %, so omit the unit and give the number.

FC(F)(F)c1cccc(OCCCc2ccncc2)n1 = 98.8

So for CCOC(=O)c1c(C(C)(C)C)oc2ccc(OCC(=O)c3ccc(OC)cc3)cc12 , the logged viability at 28.5 h, 10 µM turned out to be 123

So for Oc1cc(C(F)(F)F)nc(NCc2cccc3ccccc23)n1 , the logged viability at 28.5 h, 10 µM turned out to be 92.7

###

# procedure-details: in vitro
# details: human, hela cells, % viability
measure-name: viability at 28.5 h, 10 µM (%)
Your answer is read as %, so omit the unit and give the number.

So for C[C@@H](c1ccccc1)n1c(=O)[nH]c2ncc(-c3cccc4ncccc34)nc21 , the logged viability at 28.5 h, 10 µM turned out to be 116

So for COc1ccc(C(C)C)cc1S(=O)(=O)NCCc1c(C)[nH]c2c(Cl)cccc12 , the logged viability at 28.5 h, 10 µM turned out to be 94.5

So for COc1cc(CN2CCN(C/C=C/c3ccccc3)CC2)c([N+](=O)[O-])cc1OC , the logged viability at 28.5 h, 10 µM turned out to be 86.4

###

# procedure-details: in vitro
# details: human, hela cells, % viability
measure-name: viability at 28.5 h, 10 µM (%)
Your answer is read as %, so omit the unit and give the number.

Cc1cc(C)nc(N2CCC(C3CC=CCN(CCc4ccccc4)C3=O)CC2)n1 (stereo not shown) = 105
CC(C)c1cc(C(=O)N2CC(N3CCOCC3)C2)nc2ncnn12 = 86.9
Cc1nn(CCNC(=O)C2CC(=O)N(Cc3ccccn3)C2)c(C)c1Cl (stereo not shown) = 85.1
O=S(=O)(Nc1nnn[nH]1)c1ccc(-c2ccccn2)s1 = 106
Cc1ccc(-c2nccnc2OCCc2c[nH]c3ccccc23)cc1C = 96
COc1ccc(CNC(=S)Nc2cccc(C(F)(F)F)c2)cc1OC = 101
O=C(CC1(O)C(=O)N(Cc2ccc3c(c2)OCO3)c2ccccc21)c1cccnc1 (stereo not shown) = 103
Cc1cc(NS(=O)(=O)c2ccc(NC(=O)Nc3ccc4c(c3)OCO4)cc2)no1 = 104

So for COC(=O)CCCC(=O)n1ccn(-c2cccc(C(F)(F)F)c2)c1=O , the logged viability at 28.5 h, 10 µM turned out to be 87.6

So for CCC(O)CN1CCCC(c2nc3cc(C)ccc3[nH]2)C1 (stereo not shown) , the logged viability at 28.5 h, 10 µM turned out to be 88.8
